Please provide measured Degree of damage for the entries that follow.
# Tested on: Corn, cultivar “Lorenzo”
# Test Protocol: Herbicidal post-emergence action, damage to crop plants: corn
# Conditions: in vivo

[ask] Find the recorded Degree of damage belonging to COc1nc(C)nc(NC(=O)NS(=O)(=O)c2ccccc2Cl)n1 [herbicide A4.1, chlorsulfuron] and report it.
[reply] 70%

[ask] Lookup COC(=O)c1ccccc1S(=O)(=O)NC(=O)Nc1nc(C)nc(OC)n1 [herbicide A1.1, metsulfuron-methyl]
[reply] 50%

[ask] Another: COC(=O)c1sccc1S(=O)(=O)NC(=O)Nc1nc(C)nc(OC)n1 [herbicide A2.1, thifensulfuron-methyl]
[reply] 20%

[ask] Request: COC(=O)c1ccccc1S(=O)(=O)NC(=O)N(C)c1nc(C)nc(OC)n1 [herbicide A3.1, tribenuron-methyl]
[reply] 10%
